- METHOD: Long-term/accelerated stability test of crystalline salt forms in sealed aluminum foil bags
- Assay type: physicochemical
- CONDITION_NOTES: 4° C., 2 months
ENDPOINT_LABEL: Purity (%)

1) CC1COCCN1c1cc(C(C)(C)C#N)c2c(n1)c(-c1cc[nH]n1)nn2C.O=C(O)C=CC(=O)O (centres unmarked) [Crystalline form I of maleate] :: 98.99
2) CC1COCCN1c1cc(C(C)(C)C#N)c2c(n1)c(-c1cc[nH]n1)nn2C.CS(=O)(=O)O (stereo not drawn) [Crystalline form α of mesylate] :: 98.65
3) CC1COCCN1c1cc(C(C)(C)C#N)c2c(n1)c(-c1cc[nH]n1)nn2C.CC1COCCN1c1cc(C(C)(C)C#N)c2c(n1)c(-c1cc[nH]n1)nn2C.O=C(O)C(=O)O (centres unmarked) [Crystalline form a of oxalate] :: 99.60
4) CC1COCCN1c1cc(C(C)(C)C#N)c2c(n1)c(-c1cc[nH]n1)nn2C.Cc1ccc(S(=O)(=O)O)cc1 (centres unmarked) [Crystalline form a of p-toluenesulfonate] :: 98.19
5) CC1COCCN1c1cc(C(C)(C)C#N)c2c(n1)c(-c1cc[nH]n1)nn2C.O=S(=O)(O)O (stereo not drawn) [Crystalline form α of sulfate] :: 97.29
